TEST_NAME: Cytotoxicity against C57BL/6J mouse primary hepatocytes assessed as cell viability at 200 uM incubated for 24 hrs by MTT assay relative to control
Assay type: toxicity, cell-based, Hepatocyte
MEASUREMENT_CONTEXT: read-out: Activity
TEST_READOUT: viability at 24 h, 200 µM (%)
Please state the figure in %; there is no need to write the unit.

"COC(=O)[C@@]12CCCC3([C@H](OCCCO)OC1)[C@H]2CC[C@H]1[C@@H](C)c2ccoc2C[C@@H]13" yielded viability at 24 h, 200 µM of 9.9

Just so you know, measured viability at 24 h, 200 µM for "COC(=O)[C@@]12CCCC3([C@H](OCCCCCCO)OC1)[C@H]2CC[C@H]1[C@@H](C)c2ccoc2C[C@@H]13" came out at 11.4

Please fill in: viability at 24 h, 200 µM reported for "C[C@H]1c2ccoc2C[C@H]2[C@H]1CC[C@@H]1C23CCC[C@]1(CO)CO[C@H]3OCCO" = 13.2

The molecule listed as "COC(=O)[C@@]12CCCC3([C@H](OCCOCCOCCOCCO)OC1)[C@H]2CC[C@H]1[C@@H](C)c2ccoc2C[C@@H]13" has a reported viability at 24 h, 200 µM of 7.9

----------
TEST_NAME: Cytotoxicity against C57BL/6J mouse primary hepatocytes assessed as cell viability at 50 uM incubated for 24 hrs by MTT assay relative to control
Assay type: toxicity, cell-based, Hepatocyte
MEASUREMENT_CONTEXT: read-out: Activity
Binarize viability at 24 h, 50 µM at 30%; below is 1 (yes), at or above is 0 (no).

Enquiry: Just wondering, is viability at 24 h, 50 µM of "CCNC(=O)[C@@]12CCCC3([C@H](OCCO)OC1)[C@H]2CC[C@H]1[C@@H](C)c2ccoc2C[C@@H]13" below 30%?
Return: 0 (no)

Enquiry: Confirm or reject: viability at 24 h, 50 µM of "CNC(=O)[C@@]12CCCC3([C@H](OCCO)OC1)[C@H]2CC[C@H]1[C@@H](C)c2ccoc2C[C@@H]13" lies strictly below 30%
Return: 0 (no)

Enquiry: I wonder whether "COC(=O)[C@@]12CCCC3([C@H](OCCO)OC1)[C@H]2CC[C@H]1[C@@H](C)c2ccoc2C[C@@H]13" has viability at 24 h, 50 µM below 30%. Can you tell?
Return: 0 (no)

Enquiry: Does the reported viability at 24 h, 50 µM of the following compound sit strictly below 30%? "COC(=O)[C@@]12CCCC3([C@H](OCCCCO)OC1)[C@H]2CC[C@H]1[C@@H](C)c2ccoc2C[C@@H]13"
Return: 1 (yes)

Enquiry: Bench note: check whether "COC(=O)[C@@]12CCCC3([C@H](OCCCO)OC1)[C@H]2CC[C@H]1[C@@H](C)c2ccoc2C[C@@H]13" shows viability at 24 h, 50 µM below 30%
Return: 1 (yes)

Enquiry: Item "COC(=O)[C@@]12CCCC3([C@H](OCCOCCOCCO)OC1)[C@H]2CC[C@H]1[C@@H](C)c2ccoc2C[C@@H]13" : viability at 24 h, 50 µM beneath 30%, strictly?
Return: 1 (yes)

Enquiry: Dear reviewer, please state whether "CC(=O)OC[C@@]12CCCC3([C@H](OCCO)OC1)[C@H]2CC[C@H]1[C@@H](C)c2ccoc2C[C@@H]13" has viability at 24 h, 50 µM strictly beneath 30%.
Return: 0 (no)

Enquiry: # strict comparison: is reported viability at 24 h, 50 µM < 30%? input = "COC(=O)[C@@]12CCCC3([C@H](OCCCCCO)OC1)[C@H]2CC[C@H]1[C@@H](C)c2ccoc2C[C@@H]13"
Return: 1 (yes)

Enquiry: viability at 24 h, 50 µM strictly < 30% for this compound? "COC(=O)[C@@]12CCCC3([C@H](OCCCCCCO)OC1)[C@H]2CC[C@H]1[C@@H](C)c2ccoc2C[C@@H]13"
Return: 1 (yes)

Enquiry: In plain terms, does "C[C@H]1c2ccoc2C[C@H]2[C@H]1CC[C@@H]1C23CCC[C@]1(CO)CO[C@H]3OCCO" come in under 30% for viability at 24 h, 50 µM?
Return: 0 (no)

Enquiry: In plain terms, does "COC(=O)[C@@]12CCCC3([C@H](OCCOCCO)OC1)[C@H]2CC[C@H]1[C@@H](C)c2ccoc2C[C@@H]13" come in under 30% for viability at 24 h, 50 µM?
Return: 1 (yes)

Enquiry: Is 30% strictly greater than the compound's reported viability at 24 h, 50 µM? compound: "COC(=O)[C@]12CCCC3([C@H]1CC[C@H]1[C@@H](C)c4ccoc4C[C@@H]13)[C@H](SCCO)OC2"
Return: 0 (no)

Enquiry: Lab note: viability at 24 h, 50 µM threshold 30%. Does this compound come in strictly under it? "CC(=O)OCCO[C@@H]1OC[C@@]2(CO)CCCC13[C@H]2CC[C@H]1[C@@H](C)c2ccoc2C[C@@H]13"
Return: 0 (no)

Enquiry: Does the reported viability at 24 h, 50 µM of "COC(=O)[C@@]12CCCC3([C@H](OCCOCCOCCOCCO)OC1)[C@H]2CC[C@H]1[C@@H](C)c2ccoc2C[C@@H]13" stay below 30%?
Return: 1 (yes)

Enquiry: Input "CCCNC(=O)[C@@]12CCCC3([C@H](OCCO)OC1)[C@H]2CC[C@H]1[C@@H](C)c2ccoc2C[C@@H]13" ; condition: viability at 24 h, 50 µM strictly below 30%. Does it hold?
Return: 0 (no)
